# Test system: HIV-1 LAI
# PROCEDURE_TEXT: microbe, parasite or virus in culture
# STUDY_CONDITIONS: Compound 1 + named drug, EC50 ratio 2.5:1 (Compound 1:comparator); 95% confidence interval in parentheses
# Procedure: Virus and cell lines. The T-cell lines, MT-2 and PM-1 were obtained through the AIDS Research and Reference Reagent Program, NIAID, and were contributed by Dr. D. Richman and Dr. R. Gallo, respectively. […] Drug Susceptibility and Cytotoxicity Assays. […] On day-five post-infection, 20 μl from each well was harvested and quantitated by a reverse transcriptase (RT) assay, or in samples involving non-nucleoside RT inhibitors, an MTS assay. […] Cell viability was determined by an MTS assay. […]
Below: a set of entries, each annotated with reported Combination Indices at % HIV Inhibition (Confidence Interval) 90%.
MEASUREMENT_NAME: Combination Indices at % HIV Inhibition (Confidence Interval) 90%

{"columns": ["SMILES_STR", "TARGET_OR_SYSTEM", "VALUE_OBSERVED"],
 "data": [
  ["O=C1Nc2ccc(Cl)cc2[C@@](C#CC2CC2)(C(F)(F)F)O1", "HIV-1 LAI", "0.30 (0.08, 0.51)"],
  ["Cc1cccc(C)c1OCC(=O)N[C@@H](Cc1ccccc1)[C@@H](O)C[C@H](Cc1ccccc1)NC(=O)[C@H](C(C)C)N1CCCNC1=O", "HIV-1 LAI", "0.51 (0.37, 0.65)"],
  ["CC(C)(C)NC(=O)[C@@H]1CN(Cc2cccnc2)CCN1C[C@@H](O)C[C@@H](Cc1ccccc1)C(=O)N[C@H]1c2ccccc2C[C@H]1O", "HIV-1 LAI", "0.68 (0.39, 0.98)"],
  ["O=c1[nH]cnc2c1ncn2[C@H]1CC[C@@H](CO)O1", "HIV-1 LAI", "0.65 (0.31, 0.98)"],
  ["CON(Cc1ccc(F)cc1)C(=O)C=C(O)C(=O)O", "HIV-1 LAI", "1.00 (0.41, 1.59)"]
]}

Data provenance: patent US7776863B2
